Where do the numbers come from? From ChEMBL document CHEMBL1138310.

# method-summary: Metabolic stability in rat brush border vesicles
# Assay type: ADME
*1 amine or outer side, *2 acyl side, *3 side chain or, on linkers, in order; H or OH if unused. Where a SMILES comes first, the peptide text is derived from it. Bridges are numbered along the chain shown (N, C = ends). [ ]: non-standard residue; d: D form. Phe(Nα-(CH2)3CO) = O=C([C@H](Cc1ccccc1)N(CCCC(=O)[*:3])[*:1])[*:2]; Phe(Nα-CH2CH2CO) = O=C([C@H](Cc1ccccc1)N(CCC(=O)[*:3])[*:1])[*:2]; N(2-aminoethyl)Phe = O=C([C@H](Cc1ccccc1)N(CCN[*:3])[*:1])[*:2]
observation-type: Stability

>>> test_value("C[C@@H]1NC(=O)[C@H](C)NC(=O)[C@H](Cc2ccccc2)NCCC(=O)NCCN([C@@H](Cc2ccccc2)C(N)=O)C(=O)CNC(=O)CNC1=O (H-[Phe(Nα-CH2CH2CO)]AAGG[N(2-aminoethyl)Phe]-NH2; lactam 1-6)")
"Stable"
>>> test_value("NC(=O)[C@H](Cc1ccccc1)N1CCNC(=O)CCCN[C@@H](Cc2ccccc2)C(=O)NCC(=O)NCC(=O)NCC(=O)NCC1=O (H-[Phe(Nα-(CH2)3CO)]GGGG[N(2-aminoethyl)Phe]-NH2; lactam 1-6)")
"Stable"

---

# method-summary: Permeability in biomimetic membrane layer DMPC vesicles assessed as decrease in fluorescence at 30 uM by colorimetric mixed-vesicle assay
# Format: ADME, cell membranes
*1 amine or outer side, *2 acyl side, *3 side chain or, on linkers, in order; H or OH if unused. Where a SMILES comes first, the peptide text is derived from it. Bridges are numbered along the chain shown (N, C = ends). [ ]: non-standard residue; d: D form. Phe(Nα-CH2CH2CO) = O=C([C@H](Cc1ccccc1)N(CCC(=O)[*:3])[*:1])[*:2]; N(2-aminoethyl)Phe = O=C([C@H](Cc1ccccc1)N(CCN[*:3])[*:1])[*:2]; NMeF = CN[C@@H](Cc1ccccc1)C(=O)O; Sar = CNCC(=O)O
Catalogue of permeability readings, one per entry.
Note: unit % is implicit; provide only the numeric part.

>>> test_value("CN[C@@H](Cc1ccccc1)C(=O)N(C)CC(=O)NCC(=O)NCC(=O)NCC(=O)N(C)[C@@H](Cc1ccccc1)C(N)=O (H-[NMeF][Sar]GGG[NMeF]-NH2)")
35
>>> test_value("CN1CC(=O)NCC(=O)NCC(=O)NCC(=O)N([C@@H](Cc2ccccc2)C(N)=O)CCNC(=O)CCN[C@@H](Cc2ccccc2)C1=O (H-[Phe(Nα-CH2CH2CO)][Sar]GGG[N(2-aminoethyl)Phe]-NH2; lactam 1-6)")
35

// field: permeability; key: CN[C@@H](Cc1ccccc1)C(=O)NCC(=O)NCC(=O)NCC(=O)NCC(=O)N(C)[C@@H](Cc1ccccc1)C(N)=O (H-[NMeF]GGGG[NMeF]-NH2) ; value = 40

Measured permeability of NC(=O)[C@H](Cc1ccccc1)N1CCNC(=O)CCN[C@@H](Cc2ccccc2)C(=O)NCC(=O)NCC(=O)NCC(=O)NCC1=O (H-[Phe(Nα-CH2CH2CO)]GGGG[N(2-aminoethyl)Phe]-NH2; lactam 1-6) : 40

---

# method-summary: Metabolic stability in rat brush border vesicles
# Assay type: ADME
*1 amine or outer side, *2 acyl side, *3 side chain or, on linkers, in order; H or OH if unused. Where a SMILES comes first, the peptide text is derived from it. Bridges are numbered along the chain shown (N, C = ends). [ ]: non-standard residue; d: D form. Phe(Nα-CH2CH2CO) = O=C([C@H](Cc1ccccc1)N(CCC(=O)[*:3])[*:1])[*:2]; N(2-aminoethyl)Phe = O=C([C@H](Cc1ccccc1)N(CCN[*:3])[*:1])[*:2]; Sar = CNCC(=O)O
observation-type: Stability

>>> test_value("CN1CC(=O)N(C)CC(=O)N([C@@H](Cc2ccccc2)C(N)=O)CCNC(=O)CCN[C@@H](Cc2ccccc2)C(=O)N(C)CC(=O)N(C)CC1=O (H-[Phe(Nα-CH2CH2CO)][Sar][Sar][Sar][Sar][N(2-aminoethyl)Phe]-NH2; lactam 1-6)")
"Stable"
>>> test_value("NC(=O)[C@H](Cc1ccccc1)N1CCNC(=O)CCCCN[C@@H](Cc2ccccc2)C(=O)NCC(=O)NCC(=O)NCC(=O)NCC1=O")
"Stable"
>>> test_value("C[C@@H]1NC(=O)[C@H](C)NC(=O)[C@H](Cc2ccccc2)NCCC(=O)NCCN([C@@H](Cc2ccccc2)C(N)=O)C(=O)[C@H](C)NC(=O)[C@H](C)NC1=O (H-[Phe(Nα-CH2CH2CO)]AAAA[N(2-aminoethyl)Phe]-NH2; lactam 1-6)")
"Stable"

---

# method-summary: Apparent permeability across Caco-2 cells
# Assay type: ADME, cell-based
# experimental-parameters: human
*1 amine or outer side, *2 acyl side, *3 side chain or, on linkers, in order; H or OH if unused. Where a SMILES comes first, the peptide text is derived from it. Bridges are numbered along the chain shown (N, C = ends). [ ]: non-standard residue; d: D form. Phe(Nα-(CH2)3CO) = O=C([C@H](Cc1ccccc1)N(CCCC(=O)[*:3])[*:1])[*:2]; Phe(Nα-CH2CH2CO) = O=C([C@H](Cc1ccccc1)N(CCC(=O)[*:3])[*:1])[*:2]; N(2-aminoethyl)Phe = O=C([C@H](Cc1ccccc1)N(CCN[*:3])[*:1])[*:2]; NMeF = CN[C@@H](Cc1ccccc1)C(=O)O; Sar = CNCC(=O)O
observation-type: Papp (×10⁻⁶ cm/s)
Answer in ×10⁻⁶ cm/s, number only, no unit symbol.

Use the examples below as a reference point.
>>> test_value("OC[C@@H](O)[C@@H](O)[C@H](O)[C@H](O)CO [MANNITOL]")
2.2
>>> test_value("NC(=O)[C@H](Cc1ccccc1)N1CCNC(=O)CCCN[C@@H](Cc2ccccc2)C(=O)NCC(=O)NCC(=O)NCC(=O)NCC1=O (H-[Phe(Nα-(CH2)3CO)]GGGG[N(2-aminoethyl)Phe]-NH2; lactam 1-6)")
2.73
>>> test_value("CN[C@@H](Cc1ccccc1)C(=O)N(C)CC(=O)N(C)CC(=O)NCC(=O)NCC(=O)N(C)[C@@H](Cc1ccccc1)C(N)=O (H-[NMeF][Sar][Sar]GG[NMeF]-NH2)")
0.46
>>> test_value("CN[C@@H](Cc1ccccc1)C(=O)N[C@@H](C)C(=O)N[C@@H](C)C(=O)NCC(=O)NCC(=O)N(C)[C@@H](Cc1ccccc1)C(N)=O (H-[NMeF]AAGG[NMeF]-NH2)")
0.87

Kindly note the recorded Papp for CN1CC(=O)N(C)CC(=O)N([C@@H](Cc2ccccc2)C(N)=O)CCNC(=O)CCN[C@@H](Cc2ccccc2)C(=O)N(C)CC(=O)N(C)CC1=O (H-[Phe(Nα-CH2CH2CO)][Sar][Sar][Sar][Sar][N(2-aminoethyl)Phe]-NH2; lactam 1-6) , which is 1.56

GET /value?item= C[C@@H]1NC(=O)[C@H](C)NC(=O)[C@H](C)NC(=O)[C@H](Cc2ccccc2)NCCC(=O)NCCN([C@@H](Cc2ccccc2)C(N)=O)C(=O)CNC1=O (H-[Phe(Nα-CH2CH2CO)]AAAG[N(2-aminoethyl)Phe]-NH2; lactam 1-6) &field=Papp returns 3.47

---

Each entry below lists one item and its recorded Papp value.
# System: Intestine
# method-summary: Apparent permeability across rat small intestine
# Assay type: ADME, tissue-based
*1 amine or outer side, *2 acyl side, *3 side chain or, on linkers, in order; H or OH if unused. Where a SMILES comes first, the peptide text is derived from it. Bridges are numbered along the chain shown (N, C = ends). [ ]: non-standard residue; d: D form. Phe(Nα-CH2CH2CO) = O=C([C@H](Cc1ccccc1)N(CCC(=O)[*:3])[*:1])[*:2]; N(2-aminoethyl)Phe = O=C([C@H](Cc1ccccc1)N(CCN[*:3])[*:1])[*:2]; NMeF = CN[C@@H](Cc1ccccc1)C(=O)O; Sar = CNCC(=O)O
All answers are understood in ×10⁻⁶ cm/s, so give the number only.

>>> test_value("CN[C@@H](Cc1ccccc1)C(=O)N(C)CC(=O)NCC(=O)NCC(=O)NCC(=O)N(C)[C@@H](Cc1ccccc1)C(N)=O (H-[NMeF][Sar]GGG[NMeF]-NH2)")
0.75
>>> test_value("CN1CC(=O)NCC(=O)NCC(=O)NCC(=O)N([C@@H](Cc2ccccc2)C(N)=O)CCNC(=O)CCN[C@@H](Cc2ccccc2)C1=O (H-[Phe(Nα-CH2CH2CO)][Sar]GGG[N(2-aminoethyl)Phe]-NH2; lactam 1-6)")
4.58

The reported value for C[C@@H]1NC(=O)[C@H](C)NC(=O)[C@H](Cc2ccccc2)NCCC(=O)NCCN([C@@H](Cc2ccccc2)C(N)=O)C(=O)CNC(=O)CNC1=O (H-[Phe(Nα-CH2CH2CO)]AAGG[N(2-aminoethyl)Phe]-NH2; lactam 1-6) in terms of Papp is 5.26
